Test: 4 h main pharmacokinetic experiment in wild-type, Abcb1a/1b-/-, Abcg2-/- and Abcb1a/1b;Abcg2-/- mice
Type: in vivo
Details: male, FVB, mouse, plasma, po, 10 mg/kg, male wild-type mice, 10 mg/kg oral, 4 h main experiment; read-out: AUC0–4h
RECORDED METRIC: AUC(0-t) (ng·h/mL)
Give a bare numeral; the unit ng·h/mL is implied.

*Q* Any idea what AUC(0-t) was measured for COc1ccc(CN2C3CC2CN(c2ccc(-c4cc(OCC(C)(C)O)cn5ncc(C#N)c45)cn2)C3)cn1 ?
*A* 23700

###

Experiment: 8 h pharmacokinetic study in wild-type, Cyp3a-/- and Cyp3aXAV mice
Conditions: female, FVB, wild-type, mouse, in vivo, po, 10 mg/kg, CSIC (small intestine contents concentration)
RECORDED METRIC: concentration at 8 h (ng/g)
Give a bare numeral; the unit ng/g is implied.

*Q* Any idea what concentration at 8 h was measured for COc1ccc(CN2C3CC2CN(c2ccc(-c4cc(OCC(C)(C)O)cn5ncc(C#N)c45)cn2)C3)cn1 ?
*A* 83900

###

Experiment: 2 h pharmacokinetic study with or without elacridar in wild-type and Abcb1a/1b;Abcg2-/- mice
Type: in vivo
Settings: FVB, mouse, testis; male Abcb1a/1b;Abcg2-/- mice, elacridar 50 mg/kg oral 2 h prior, 10 mg/kg oral, 2 h; read-out: Ctestis
RECORDED METRIC: concentration at 2 h (ng/g)
Give a bare numeral; the unit ng/g is implied.

*Q* Any idea what concentration at 2 h was measured for COc1ccc(CN2C3CC2CN(c2ccc(-c4cc(OCC(C)(C)O)cn5ncc(C#N)c45)cn2)C3)cn1 ?
*A* 9200

###

Experiment: 4 h main pharmacokinetic experiment in wild-type, Abcb1a/1b-/-, Abcg2-/- and Abcb1a/1b;Abcg2-/- mice
Format: in vivo
Settings: male, FVB, mouse, small intestine contents, po, 10 mg/kg, male Abcb1a/1b;Abcg2-/- mice, 10 mg/kg oral, 4 h main experiment; read-out: CSIC (small intestine contents concentration)
RECORDED METRIC: concentration at 4 h (ng/g)
Give a bare numeral; the unit ng/g is implied.

*Q* Any idea what concentration at 4 h was measured for COc1ccc(CN2C3CC2CN(c2ccc(-c4cc(OCC(C)(C)O)cn5ncc(C#N)c45)cn2)C3)cn1 [selpercatinib] ?
*A* 27400

###

Assay: 8 h pharmacokinetic study in wild-type, Cyp3a-/- and Cyp3aXAV mice
Conditions: female, FVB, Cyp3a-/-, mouse, in vivo, po, 10 mg/kg, CSIC (small intestine contents concentration)
RECORDED METRIC: concentration at 8 h (ng/g)
Give a bare numeral; the unit ng/g is implied.

*Q* Any idea what concentration at 8 h was measured for COc1ccc(CN2C3CC2CN(c2ccc(-c4cc(OCC(C)(C)O)cn5ncc(C#N)c45)cn2)C3)cn1 [selpercatinib] ?
*A* 44900

###

Experiment: 4 h pharmacokinetic pilot study in wild-type, Abcb1a/1b;Abcg2-/- and Slco1a/1b-/- mice
Format: in vivo
Conditions: male, FVB background, Abcb1a/1b;Abcg2-/-, mouse, in vivo, po, 10 mg/kg
RECORDED METRIC: Cmax (ng/mL)
Give a bare numeral; the unit ng/mL is implied.

*Q* Any idea what Cmax was measured for COc1ccc(CN2C3CC2CN(c2ccc(-c4cc(OCC(C)(C)O)cn5ncc(C#N)c45)cn2)C3)cn1 [selpercatinib] ?
*A* 8580

###

Assay: 2 h pharmacokinetic study with or without elacridar in wild-type and Abcb1a/1b;Abcg2-/- mice
Format: in vivo
Details: FVB, mouse, testis; male wild-type mice, vehicle, 10 mg/kg oral, 2 h; read-out: Ctestis
RECORDED METRIC: concentration at 2 h (ng/g)
Give a bare numeral; the unit ng/g is implied.

*Q* Any idea what concentration at 2 h was measured for COc1ccc(CN2C3CC2CN(c2ccc(-c4cc(OCC(C)(C)O)cn5ncc(C#N)c45)cn2)C3)cn1 ?
*A* 788

###

Assay: 2 h pharmacokinetic study with or without elacridar in wild-type and Abcb1a/1b;Abcg2-/- mice
Type: in vivo
Settings: FVB, mouse, small intestine tissue together with contents; male wild-type mice, vehicle, 10 mg/kg oral, 2 h; read-out: CSI + SIC (small intestine tissue together with contents concentration)
RECORDED METRIC: concentration at 2 h (ng/g)
Give a bare numeral; the unit ng/g is implied.

*Q* Any idea what concentration at 2 h was measured for COc1ccc(CN2C3CC2CN(c2ccc(-c4cc(OCC(C)(C)O)cn5ncc(C#N)c45)cn2)C3)cn1 ?
*A* 37600

###

Test: 2 h pharmacokinetic study with or without elacridar in wild-type and Abcb1a/1b;Abcg2-/- mice
Type: in vivo
Settings: male, Abcb1a/1b;Abcg2-/- (>99% FVB genetic background), mouse, plasma, po, 10 mg/kg, male Abcb1a/1b;Abcg2-/- mice, vehicle, 10 mg/kg oral, 2 h
RECORDED METRIC: Tmax (h)
Give a bare numeral; the unit h is implied.

*Q* Any idea what Tmax was measured for COc1ccc(CN2C3CC2CN(c2ccc(-c4cc(OCC(C)(C)O)cn5ncc(C#N)c45)cn2)C3)cn1 ?
*A* 1

###

Assay: 4 h main pharmacokinetic experiment in wild-type, Abcb1a/1b-/-, Abcg2-/- and Abcb1a/1b;Abcg2-/- mice
Type: in vivo
Details: male, FVB (wild-type), mouse, brain, po, 10 mg/kg, male wild-type mice, 10 mg/kg oral, 4 h main experiment; read-out: Cbrain
RECORDED METRIC: concentration at 4 h
Your answer should be a number followed by the unit of measure.

*Q* Any idea what concentration at 4 h was measured for COc1ccc(CN2C3CC2CN(c2ccc(-c4cc(OCC(C)(C)O)cn5ncc(C#N)c45)cn2)C3)cn1 [selpercatinib] ?
*A* 420 ng/g

###

Assay: 4 h main pharmacokinetic experiment in wild-type, Abcb1a/1b-/-, Abcg2-/- and Abcb1a/1b;Abcg2-/- mice
Type: in vivo
Conditions: FVB (wild-type), mouse, plasma; male wild-type mice, 10 mg/kg oral, 4 h main experiment
RECORDED METRIC: Tmax (h)
Give a bare numeral; the unit h is implied.

*Q* Any idea what Tmax was measured for COc1ccc(CN2C3CC2CN(c2ccc(-c4cc(OCC(C)(C)O)cn5ncc(C#N)c45)cn2)C3)cn1 ?
*A* 1.6

###

Test: 8 h pharmacokinetic study in wild-type, Cyp3a-/- and Cyp3aXAV mice
Details: female, mouse, in vivo, po, 10 mg/kg
RECORDED METRIC: Tmax (min)
Give a bare numeral; the unit min is implied.

*Q* Any idea what Tmax was measured for COc1ccc(CN2C3CC2CN(c2ccc(-c4cc(OCC(C)(C)O)cn5ncc(C#N)c45)cn2)C3)cn1 ?
*A* 17.4

###

Assay: 8 h pharmacokinetic study in wild-type, Cyp3a-/- and Cyp3aXAV mice
Conditions: female, Cyp3a-/- (>99% FVB genetic background), mouse, in vivo, po, 10 mg/kg, Cbrain
RECORDED METRIC: concentration at 8 h (ng/g)
Give a bare numeral; the unit ng/g is implied.

*Q* Any idea what concentration at 8 h was measured for COc1ccc(CN2C3CC2CN(c2ccc(-c4cc(OCC(C)(C)O)cn5ncc(C#N)c45)cn2)C3)cn1 ?
*A* 86.2

###

Experiment: 4 h main pharmacokinetic experiment in wild-type, Abcb1a/1b-/-, Abcg2-/- and Abcb1a/1b;Abcg2-/- mice
Assay type: in vivo
Conditions: male, FVB, mouse, testis, po, 10 mg/kg, male Abcb1a/1b;Abcg2-/- mice, 10 mg/kg oral, 4 h main experiment; read-out: Ctestis
RECORDED METRIC: concentration at 4 h (ng/g)
Give a bare numeral; the unit ng/g is implied.

*Q* Any idea what concentration at 4 h was measured for COc1ccc(CN2C3CC2CN(c2ccc(-c4cc(OCC(C)(C)O)cn5ncc(C#N)c45)cn2)C3)cn1 ?
*A* 8330

###

Test: 4 h pharmacokinetic pilot study in wild-type, Abcb1a/1b;Abcg2-/- and Slco1a/1b-/- mice
Type: in vivo
Settings: male, FVB background, Slco1a/1b-/-, mouse, in vivo, po, 10 mg/kg
RECORDED METRIC: Tmax (h)
Give a bare numeral; the unit h is implied.

*Q* Any idea what Tmax was measured for COc1ccc(CN2C3CC2CN(c2ccc(-c4cc(OCC(C)(C)O)cn5ncc(C#N)c45)cn2)C3)cn1 [selpercatinib] ?
*A* 1.7

###

Experiment: 4 h main pharmacokinetic experiment in wild-type, Abcb1a/1b-/-, Abcg2-/- and Abcb1a/1b;Abcg2-/- mice
Assay type: in vivo
Conditions: FVB (Abcb1a/1b-/-), mouse, plasma; male Abcb1a/1b-/- mice, 10 mg/kg oral, 4 h main experiment
RECORDED METRIC: Tmax
Your answer should be a number followed by the unit of measure.

*Q* Any idea what Tmax was measured for COc1ccc(CN2C3CC2CN(c2ccc(-c4cc(OCC(C)(C)O)cn5ncc(C#N)c45)cn2)C3)cn1 [selpercatinib] ?
*A* 1.8 h
